Assay: Mouse PO PK
Conditions: in vivo, 10 mg/kg, PO 10 mpk
Let's look at some molecules and their measured AUC(0-t).
Answer with a number only, understood to be in ng·h/mL.

Request: Reported AUC(0-t), molecule C=CC(=O)N1CCN(C(=O)c2cc(Sc3cnc(NC(=O)C4CC4)s3)c(C)cc2OC)CC1 [Compound 1] : ____
Response: 335

Request: Reported AUC(0-t), molecule C=CC(=O)N1CCN(C(=O)c2cc(Sc3cnc(NC(=O)c4ccsc4)s3)c(C)cc2OC)CC1 [Compound 90] : ____
Response: 419

Request: Reported AUC(0-t), molecule C=CC(=O)N1CCN(C(=O)c2cc(Sc3cnc(NC(=O)C4CC4)s3)c(C)cc2OC)C[C@H]1C [Compound 21] : ____
Response: 215

Request: Reported AUC(0-t), molecule C=CC(=O)N1CCCN(C(=O)c2cc(Sc3cnc(NC(=O)C4CC4)s3)c(C)cc2OC)C[C@H]1C [Compound 44] : ____
Response: 226

====

Biological target: TXK (Homo sapiens (Human))
Assay: IC50 against TXK
Assay type: biochemical
Let's look at some molecules and their measured IC50.

>>> obsvalue("C=CC(=O)N1CCN(C(=O)c2cc(Sc3cnc(Nc4ccccn4)s3)c(C)cc2C)CC1")
"< 10 nM"
>>> obsvalue("C=CC(=O)N1CCN(C(=O)c2cc(Sc3cnc(NC(=O)C4CC4)s3)c(C)cc2OC)CC[C@H]1C")
"10 to 100 nM"
>>> obsvalue("C=CC(=O)N1CCCN(C(=O)c2cc(Sc3cnc(NC(=O)c4ccsc4)s3)c(C)cc2OC)C[C@H]1C(C)C")
"100 to 1000 nM"
>>> obsvalue("C=CC(=O)N1CCCN(C(=O)c2cc(Sc3cnc(NC(=O)C4CC4)s3)c(C)cc2OC)CC1")
"10 to 100 nM"
>>> obsvalue("C=CC(=O)N1CCN(C(=O)c2cc(Sc3cnc(NC(=O)c4cn(C)cn4)s3)c(C)cc2OC)CC1")
"100 to 1000 nM"

Request: Reported IC50, molecule C=CC(=O)N1CCCN(C(=O)c2cc(Sc3cnc(NC(=O)C4CC4)s3)c(C)cc2C)CC1 : ____
Response: 100 to 1000 nM

Request: Reported IC50, molecule C=CC(=O)N1CCCN(C(=O)c2cc(Sc3cnc(NC(=O)C4CC4)s3)c(F)cc2C)C[C@H]1C : ____
Response: 1000 to 10000 nM

Request: Reported IC50, molecule C=CC(=O)N1CCCN(C(=O)c2cc(Sc3cnc(NC(=O)C4CC4)s3)c(C)cc2Cl)C[C@H]1C : ____
Response: 100 to 1000 nM

Request: Reported IC50, molecule C=CC(=O)N1CCN(C(=O)c2cc(Sc3cnc(NC(C)=O)s3)c(C)cc2OC)[C@H](C)C1 : ____
Response: 100 to 1000 nM

Request: Reported IC50, molecule C=CC(=O)N1CCCN(C(=O)c2cc(Cc3cnc(NC(=O)C4CC4)s3)c(C)cc2OC)C[C@H]1C : ____
Response: 100 to 1000 nM

Request: Reported IC50, molecule C=CC(=O)N1CCCN(C(=O)c2cc(Sc3cnc(NC(=O)c4ccsc4)s3)c(C)cc2C)C[C@H]1CC : ____
Response: 100 to 1000 nM

Request: Reported IC50, molecule C=CC(=O)N1CCN(C(=O)c2cc(Sc3cnc(NC(=O)c4ccsc4)s3)c(C)cc2OC)CC1 : ____
Response: < 10 nM

Request: Reported IC50, molecule C=CC(=O)N1CCCN(C(=O)c2cc(Cc3cnc(NC(=O)C4CC4)s3)c(C)cc2C)C[C@H]1C : ____
Response: 100 to 1000 nM

Request: Reported IC50, molecule C=CC(=O)N1CCN(C(=O)c2cc(Sc3cnc(NC(C)=O)s3)c(C)cc2OC)[C@@H](C)C1 : ____
Response: 10 to 100 nM

Request: Reported IC50, molecule C=CC(=O)N1[C@@H]2CC[C@H]1CN(C(=O)c1cc(Sc3cnc(NC(C)=O)s3)c(C)cc1OC)C2 : ____
Response: 10 to 100 nM

====

Biological target: TXK (Homo sapiens (Human), UniProt P42681)
Sequence (P42681 whole entry, species assumed): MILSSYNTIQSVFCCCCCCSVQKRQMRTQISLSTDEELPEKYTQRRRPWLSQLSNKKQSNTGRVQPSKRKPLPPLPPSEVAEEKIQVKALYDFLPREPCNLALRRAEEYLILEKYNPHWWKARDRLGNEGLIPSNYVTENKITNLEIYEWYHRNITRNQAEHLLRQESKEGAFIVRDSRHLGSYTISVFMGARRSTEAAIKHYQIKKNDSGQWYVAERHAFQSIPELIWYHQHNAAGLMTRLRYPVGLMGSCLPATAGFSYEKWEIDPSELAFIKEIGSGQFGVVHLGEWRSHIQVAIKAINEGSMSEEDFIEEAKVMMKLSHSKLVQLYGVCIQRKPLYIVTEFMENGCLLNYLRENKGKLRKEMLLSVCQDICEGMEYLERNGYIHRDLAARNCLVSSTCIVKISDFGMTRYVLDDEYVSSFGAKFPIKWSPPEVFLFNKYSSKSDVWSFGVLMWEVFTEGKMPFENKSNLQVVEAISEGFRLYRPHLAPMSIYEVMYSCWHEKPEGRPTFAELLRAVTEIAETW
Assay: IC50 against TXK
Assay type: biochemical
attributeMeasured: IC50

Consider the following illustrative entries.
>>> obsvalue("C=CC(=O)N1CCCN(C(=O)c2cc(Sc3cnc(NC(=O)C4CC4)s3)c(C)cc2CC)C[C@H]1C [Compound 105]")
"100 to 1000 nM"
>>> obsvalue("C=CC(=O)N1CC[C@H](N(C)C(=O)c2cc(Sc3cnc(NC(C)=O)s3)c(C)cc2OC)C1 [Compound 30]")
"10 to 100 nM"
>>> obsvalue("C=CC(=O)N1CCN(C(=O)c2cc(Sc3cnc(NC(C)=O)s3)c(C)cc2C)C[C@H]1C#N [Compound 119]")
"< 10 nM"
>>> obsvalue("C=CC(=O)N1CCN(C(=O)c2cc(Sc3cnc(NC4CC4)s3)c(C)cc2OC)CC1 [Compound 67]")
"1000 to 10000 nM"
>>> obsvalue("C=CC(=O)N1CC[C@@H](N(C)C(=O)c2cc(Sc3cnc(NC(=O)c4ccsc4)s3)c(C)cc2OC)C1 [Compound 146]")
"< 10 nM"

Request: Reported IC50, compound C=CC(=O)N1CCCN(C(=O)c2cc(Sc3cnc(Nc4ncccc4C)s3)c(C)cc2OC)C[C@H]1C [Compound 136] : ____
Response: 10 to 100 nM

Request: Reported IC50, compound C=CC(=O)N1CCN(C(=O)c2cc(Sc3cnc(NC(=O)c4cnsc4)s3)c(C)cc2C)C[C@H]1CC [Compound 131] : ____
Response: 10 to 100 nM

Request: Reported IC50, compound C=CC(=O)N1CCN(C(=O)c2cc(Sc3cnc(NC(=O)C4CC4)s3)c(C)cc2OC)CC1 [Compound 1] : ____
Response: < 10 nM

Request: Reported IC50, compound C=CC(=O)N1CCN(C(=O)c2cc(Sc3cnc(NC(=O)C4CCC4)s3)c(C)cc2OC)CC1 [Compound 84] : ____
Response: 10 to 100 nM

Request: Reported IC50, compound C=CC(=O)N1CCN(C(=O)c2cc(Sc3cnc(NC(=O)c4cocn4)s3)c(C)cc2OC)CC1 [Compound 92] : ____
Response: 100 to 1000 nM

Request: Reported IC50, compound C=CC(=O)N1CCN(C(=O)c2cc(Sc3cnc(NC(=O)C4CC4)s3)c(C)cc2C)C[C@H]1C [Compound 75] : ____
Response: 10 to 100 nM

====

Molecular target: ITK (Homo sapiens (Human), UniProt Q08881)
Sequence (Q08881 whole entry): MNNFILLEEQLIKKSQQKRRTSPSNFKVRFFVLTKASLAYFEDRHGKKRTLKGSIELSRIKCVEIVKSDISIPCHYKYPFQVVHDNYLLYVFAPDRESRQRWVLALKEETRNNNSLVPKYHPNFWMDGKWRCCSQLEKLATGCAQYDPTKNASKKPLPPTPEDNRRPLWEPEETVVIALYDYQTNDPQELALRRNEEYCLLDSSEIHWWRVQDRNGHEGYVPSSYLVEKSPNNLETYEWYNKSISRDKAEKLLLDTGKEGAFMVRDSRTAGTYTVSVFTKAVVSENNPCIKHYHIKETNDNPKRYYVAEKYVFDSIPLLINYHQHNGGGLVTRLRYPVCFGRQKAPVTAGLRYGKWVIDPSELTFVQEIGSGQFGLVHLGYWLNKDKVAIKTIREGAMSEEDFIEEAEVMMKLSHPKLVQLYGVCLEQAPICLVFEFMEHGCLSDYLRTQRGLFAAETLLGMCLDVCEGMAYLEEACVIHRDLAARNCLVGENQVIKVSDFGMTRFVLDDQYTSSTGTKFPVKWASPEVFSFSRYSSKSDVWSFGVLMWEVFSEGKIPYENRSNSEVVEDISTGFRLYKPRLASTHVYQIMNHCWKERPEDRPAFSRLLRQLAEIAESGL
Assay: IC50 against ITK
Format: biochemical
Let's look at some molecules and their measured IC50.

Consider the following illustrative entries.
>>> obsvalue("C=CC(=O)N1CCCN(C(=O)c2cc(Sc3cnc(NC(=O)C4CC4)s3)c(C)cc2Cl)C[C@H]1C")
"10 to 100 nM"
>>> obsvalue("C=CC(=O)N1CCCN(C(=O)c2cc(Sc3cnc(NC(=O)C4CC4)s3)c(C)cc2C(F)(F)F)C[C@H]1C")
"10 to 100 nM"
>>> obsvalue("C=CC(=O)N1CCCN(C(=O)c2cc(Sc3cnc(NC(=O)CN(C)C)s3)c(C)cc2OC)CC1")
"100 to 1000 nM"
>>> obsvalue("C=CC(=O)N1CCN(C(=O)c2cc(Sc3cnc(NC(=O)C4CC4)s3)c(C)cn2)CC1")
"≥ 10000 nM"
>>> obsvalue("C=CC(=O)N1CCCN(C(=O)c2cc(Sc3cnc(Nc4ccccn4)s3)c(C)cc2OC)C[C@H]1C(C)C")
"< 10 nM"

Request: Reported IC50, molecule C=CC(=O)N1CCN(C(=O)c2cc(Sc3cnc(NC(=O)C4CC4)s3)c(C)cc2OC)C[C@H]1C : ____
Response: < 10 nM

Request: Reported IC50, molecule C=CC(=O)N1CCN(C(=O)c2cc(Sc3cnc(NC(=O)C4CC4)s3)ccc2OC)CC1 : ____
Response: < 10 nM

Request: Reported IC50, molecule C=CC(=O)N1CCN(C(=O)c2cc(Sc3cnc(NC(=O)c4cccc(CN(C)C)c4)s3)c(C)cc2OC)C[C@H]1CC : ____
Response: < 10 nM

Request: Reported IC50, molecule C=C(CN(C)C)C(=O)N1CCN(C(=O)c2cc(Sc3cnc(NC(=O)C4CC4)s3)c(C)cc2OC)CC1 : ____
Response: 10 to 100 nM

Request: Reported IC50, molecule C=CC(=O)N1CCCN(C(=O)c2cc(Sc3cnc(NC(=O)c4cnsc4)s3)c(C)cc2OC)C[C@H]1CC : ____
Response: < 10 nM

====

Biological target: BTK (Homo sapiens (Human), UniProt Q06187)
Sequence (Q06187 whole entry, species assumed): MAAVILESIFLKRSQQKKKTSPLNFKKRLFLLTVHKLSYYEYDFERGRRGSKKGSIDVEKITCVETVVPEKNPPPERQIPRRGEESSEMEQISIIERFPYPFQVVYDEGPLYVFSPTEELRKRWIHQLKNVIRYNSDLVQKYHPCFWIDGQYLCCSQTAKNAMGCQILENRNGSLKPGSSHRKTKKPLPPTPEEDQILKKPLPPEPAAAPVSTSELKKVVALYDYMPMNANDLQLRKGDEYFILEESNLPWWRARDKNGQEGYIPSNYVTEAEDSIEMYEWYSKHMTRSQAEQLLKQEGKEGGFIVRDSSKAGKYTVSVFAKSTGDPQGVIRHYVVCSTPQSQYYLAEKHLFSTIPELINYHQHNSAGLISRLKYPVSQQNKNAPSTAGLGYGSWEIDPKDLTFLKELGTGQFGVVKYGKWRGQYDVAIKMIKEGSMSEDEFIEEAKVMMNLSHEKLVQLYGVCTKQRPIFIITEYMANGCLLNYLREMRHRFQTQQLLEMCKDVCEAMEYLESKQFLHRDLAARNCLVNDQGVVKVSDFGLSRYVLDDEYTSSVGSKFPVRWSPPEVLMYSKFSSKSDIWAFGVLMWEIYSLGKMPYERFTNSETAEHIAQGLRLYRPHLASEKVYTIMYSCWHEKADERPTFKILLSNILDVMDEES
Experiment: IC50 against BTK
Format: biochemical
attributeMeasured: IC50

Consider the following illustrative entries.
>>> obsvalue("C=CC(=O)N1CCCN(C(=O)c2cc(Sc3cnc(NC(=O)C4CC4)s3)ccc2OC)C[C@H]1C")
"≥ 10000 nM"
>>> obsvalue("C=CC(=O)N1CCN(C(=O)c2cc(Sc3cnc(NC(=O)c4cnn(CCN(C)C)c4)s3)c(C)cc2OC)CC1")
"10 to 100 nM"
>>> obsvalue("C=CC(=O)N1CCCN(C(=O)c2cc(Cc3cnc(NC(=O)C4CC4)s3)c(C)cc2OC)C[C@H]1C")
"100 to 1000 nM"
>>> obsvalue("C=CC(=O)N1CCCN(C(=O)c2cc(Sc3cnc(NC(=O)c4cccc(CN[C@H](C)C(C)(C)C)c4)s3)c(C)cc2OC)CC1")
"100 to 1000 nM"

Request: Reported IC50, compound CC#CC(=O)N1CCCN(C(=O)c2cc(Sc3cnc(NC(=O)c4cccc(CN(C)C)c4)s3)c(C)cc2OC)CC1 : ____
Response: 1000 to 10000 nM

Request: Reported IC50, compound C=CC(=O)N1CCN(C(=O)c2cc(Sc3cnc(Nc4ncc(C)nc4C)s3)c(C)cc2C)CC1 : ____
Response: 100 to 1000 nM

Request: Reported IC50, compound C=CC(=O)N1CCCN(C(=O)c2cc(C)c(C)c(Sc3cnc(NC(=O)C4CC4)s3)c2)C[C@H]1C : ____
Response: ≥ 10000 nM

Request: Reported IC50, compound C=CC(=O)N1CCCN(C(=O)c2cc(Sc3cnc(NC(=O)C4CC4)s3)c(Cl)cc2C)C[C@H]1C : ____
Response: 1000 to 10000 nM
